Where do these numbers come from? They come from patent US20230391781A1.

- Tested on: IL-2 in Jurkat (ATCC, clone E6.1) cells stimulated with anti-CD3/28/2
- TEST NAME: Jurkat IL-2 Assay
- Type: cell-based
- APPLIED CONDITIONS: Homo sapiens; IL-2 inhibition, Jurkat cells, 30 min compound then anti-CD3/28/2 stimulation for 24 hours; mean value if tested more than once; read-out: IC50
pIC50: −log10 of the molar value. Counter-ions that a name gives are not always drawn.
OBSERVATION TYPE: pIC50

Task item: I'm curious: which pIC50 was measured for CO[C@@H](C)c1c(Nc2ccc([C@H](N(C)C(=O)C3CCN(C(C)=O)C3)C(F)(F)F)cc2)cnc2nc(Cl)nn12 (stereo partly shown) tested on IL-2 in Jurkat (ATCC, clone E6.1) cells stimulated with anti-CD3/28/2?
Reply: < 6.00

Task item: Query for IL-2 in Jurkat (ATCC, clone E6.1) cells stimulated with anti-CD3/28/2: what pIC50 does the record show for CO[C@@H](C)c1c(Nc2ccc([C@H](N(C)C(=O)C3CCNC3)C(F)(F)F)cc2)cnc2nc(Cl)nn12 (stereo partly shown) [Compound 2.3, hydrochloride] ?
Reply: 6.00 to 7.00

Task item: GET /values?readout=pIC50&system=IL-2 in Jurkat (ATCC, clone E6.1) cells stimulated with anti-CD3/28/2&item= CO[C@@H](C)c1c(Nc2ccc([C@H](N(C)C(=O)C3CCN(C)CC3)C(F)(F)F)cc2)cnc2nc(Cl)nn12
Reply: 6.00 to 7.00

Task item: Item CO[C@@H](C)c1c(Nc2ccc(C(C)N(C)C(=O)C3CCCC3)cc2)cnc2nc(Cl)nn12 (stereo partly shown) with IL-2 in Jurkat (ATCC, clone E6.1) cells stimulated with anti-CD3/28/2 - pIC50?
Reply: < 6.00

Task item: pIC50 of CO[C@@H](C)c1c(Nc2ccc([C@H](N(C)C(=O)C3CCC(NC(C)=O)CC3)C(F)(F)F)cc2)cnc2nc(Cl)nn12 (stereo partly shown) on IL-2 in Jurkat (ATCC, clone E6.1) cells stimulated with anti-CD3/28/2?
Reply: 6.00 to 7.00

Task item: Which pIC50 is reported with IL-2 in Jurkat (ATCC, clone E6.1) cells stimulated with anti-CD3/28/2 for this entry: COC(=O)N1CCC(C(=O)N(C)[C@@H](c2ccc(Nc3cnc4nc(Cl)nn4c3[C@H](C)OC)cc2)C(F)(F)F)CC1 ?
Reply: 6.00 to 7.00

Task item: Look up pIC50 with IL-2 in Jurkat (ATCC, clone E6.1) cells stimulated with anti-CD3/28/2 for this compound: CO[C@@H](C)c1c(Nc2ccc([C@H](N(C)C(=O)C3CC3)C(F)(F)F)cc2C)cnc2nc(Cl)nn12
Reply: < 6.00

Task item: Give the reported pIC50 for CO[C@@H](C)c1c(Nc2ccc([C@@H](N(C)C(=O)C3CCS(=O)(=O)CC3)C(F)(F)F)cc2)cnc2nc(Cl)nn12 (system: IL-2 in Jurkat (ATCC, clone E6.1) cells stimulated with anti-CD3/28/2).
Reply: < 6.00

Task item: Entry COC(=O)NCC1CCC(C(=O)N(C)[C@@H](c2ccc(Nc3cnc4nc(Cl)nn4c3[C@H](C)OC)cc2)C(F)(F)F)CC1 (stereo partly shown) , system IL-2 in Jurkat (ATCC, clone E6.1) cells stimulated with anti-CD3/28/2: what pIC50 was measured?
Reply: 6.00 to 7.00

Task item: Notebook: pull reported pIC50 for IL-2 in Jurkat (ATCC, clone E6.1) cells stimulated with anti-CD3/28/2, entry CO[C@@H](C)c1c(Nc2ccc([C@H](N(C)C(=O)[C@H]3CC[C@H](C(=O)O)CC3)C(F)(F)F)cc2)cnc2nc(Cl)nn12
Reply: < 6.00

Task item: // fetch IL-2 in Jurkat (ATCC, clone E6.1) cells stimulated with anti-CD3/28/2 pIC50 for CO[C@@H](C)c1c(Nc2ccc([C@H](N(C)C(=O)C3CCN(C)C3)C(F)(F)F)cc2)cnc2nc(Cl)nn12 (stereo partly shown) [Compound 5.3, hydrochloride]
Reply: < 6.00

Task item: Reported pIC50 for IL-2 in Jurkat (ATCC, clone E6.1) cells stimulated with anti-CD3/28/2, given CO[C@@H](C)c1c(Nc2ccc([C@H](N(C)C(=O)[C@H]3CC[C@H](C(=O)N(C)C)CC3)C(F)(F)F)cc2)cnc2nc(Cl)nn12 ?
Reply: 6.00 to 7.00

Task item: # returns recorded pIC50 (system: IL-2 in Jurkat (ATCC, clone E6.1) cells stimulated with anti-CD3/28/2) for CO[C@H](C)c1c(Nc2ccc([C@H](N(C)C(=O)C3CCS(=O)(=O)CC3)C(F)(F)F)cc2)cnc2nc(Cl)nn12
Reply: 6.00 to 7.00
